For each entry below, report its pKi value.
# system_under_test: Cannabinoid receptor 1 (Homo sapiens)
# Sequence (P21554 whole entry): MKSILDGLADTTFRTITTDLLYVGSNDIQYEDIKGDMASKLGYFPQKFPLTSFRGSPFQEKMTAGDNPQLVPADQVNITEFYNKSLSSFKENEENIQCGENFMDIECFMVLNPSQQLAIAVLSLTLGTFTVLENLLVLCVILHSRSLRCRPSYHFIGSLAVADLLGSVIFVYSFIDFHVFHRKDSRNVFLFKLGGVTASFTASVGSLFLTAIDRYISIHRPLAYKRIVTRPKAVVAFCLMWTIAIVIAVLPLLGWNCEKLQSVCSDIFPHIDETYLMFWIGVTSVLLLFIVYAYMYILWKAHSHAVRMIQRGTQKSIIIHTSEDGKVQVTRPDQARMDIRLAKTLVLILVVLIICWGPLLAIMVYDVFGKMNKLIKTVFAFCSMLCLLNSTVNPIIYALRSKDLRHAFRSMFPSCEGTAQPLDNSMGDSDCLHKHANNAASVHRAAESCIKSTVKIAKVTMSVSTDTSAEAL
# protocol_summary: Displacement of [3H]CP-55940 from human recombinant CB1 receptor expressed in HEK293 cell membranes incubated for 1.5 hrs
Numbers only, as −log10 of the molar value.

Take a look at these entries with their results.
mol_smiles: CCCCCc1sc2ccccc2c1C(=O)c1cccc2ccccc12
pKi: 6.30

mol_smiles: CCc1sc2ccccc2c1C(=O)c1cccc2ccccc12
pKi: 5.29

mol_smiles: COc1ccc(C(=O)c2c(CC(C)C)sc3ccccc23)cc1
pKi: 5.34

mol_smiles: O=C(c1cccc2ccccc12)n1c(C2CCC2)nc2ccccc21
pKi: 5.24

Let us examine a further case.
The compound listed as COc1ccc(-c2nc3ccccc3n2C(=O)c2cccc3ccccc23)cc1 has a reported pKi of 5.31
